- assayTarget: UniProt Q8TDV5
- Sequence (Q8TDV5 1-308 limits assumed): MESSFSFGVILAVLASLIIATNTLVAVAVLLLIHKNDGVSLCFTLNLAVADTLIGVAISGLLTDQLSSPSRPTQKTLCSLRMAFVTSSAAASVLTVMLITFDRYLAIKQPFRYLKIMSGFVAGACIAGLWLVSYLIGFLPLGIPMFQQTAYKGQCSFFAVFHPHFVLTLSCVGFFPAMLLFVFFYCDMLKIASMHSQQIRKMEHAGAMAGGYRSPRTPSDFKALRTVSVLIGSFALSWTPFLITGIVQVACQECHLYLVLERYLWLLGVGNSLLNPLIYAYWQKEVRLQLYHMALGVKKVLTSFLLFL
- assayProcedure: Measurement of GPR119 signaling (cAMP assay) in cells stably transfected with human GPR119
- Format: cell-based
- experimentalContext: stated in the example text without 'GPR119'; read-out: Human EC50
measurementName: EC50 (nM)
Field: numeric (nM). Do not append units.

### Prompt Reported EC50, compound CC(C)c1noc(N2CCC([C@H]3C[C@H]3CCOc3ccc(CC(=O)N4CCC4)cc3F)CC2)n1 [Example 101] : ____
### Response 5.3

### Prompt Given the entry CN(C)C(=O)Cc1cc(F)c(OCC[C@@H]2C[C@@H]2C2CCN(C(=O)OC3(C)CC3)CC2)cc1F [Example 62] , report its measured EC50.
### Response 2.2

----------
- assayTarget: UniProt Q8TDV5
- assayProcedure: Measurement of GPR119 signaling (cAMP assay) in cells stably transfected with human GPR119
- Assay type: cell-based
- experimentalContext: cAMP stimulation; read-out: GPR119 HumC EC50
- Description: Measurement of GPR119 Signaling (Cyclic AMP (cAMP) Assay) The adenylate cyclase assay was constructed following the LANCE™ cAMP Kit (Perkin Elmer, AD0264) instructions. The reaction was stopped by incubating with the supplied detection buffer containing the europium chelate of the Eu-SA/Biotin-cAMP tracer for 3 hours. The assay was performed in duplicate in a 384 well plate for duplicate plates and fluorescence was measured at 665 nm. […]
Parameter: EC50. Scope: all listed entries.
Just the number please, in nM, no unit attached.

Please review the entries below; each comes with its answer.
- CC(C)c1noc(N2CCC([C@H]3C[C@H]3CCOc3ccc(CC(=O)N4CCC4)c(Cl)c3)CC2)n1 [Example 103]: 0.58
- O=C(Cc1ccc(OCC[C@@H]2C[C@@H]2C2CCN(C(=O)OC3CCC3)CC2)cc1F)N1CCC1 [Example 71]: 1.4

### Prompt Recorded EC50 for CC1(OC(=O)N2CCC([C@H]3C[C@H]3CCOc3ccc(CC(=O)N4CCC4)c(Cl)c3)CC2)CC1 [Example 69] with UniProt Q8TDV5, please?
### Response 1.5

### Prompt Give UniProt Q8TDV5 EC50 for CC1(OC(=O)N2CCC([C@H]3C[C@H]3CCOc3ccc(CC(=O)N4CC(F)C4)c(F)c3)CC2)CC1 [Example 63]
### Response 0.88

### Prompt API: value(readout= EC50, system= UniProt Q8TDV5, query= CC1(OC(=O)N2CCC([C@H]3C[C@H]3CCOc3ccc(CC(=O)N4CCC[C@@H]4C(F)(F)F)c(F)c3)CC2)CC1 [Example 68] )
### Response 5.1

### Prompt Find the measured EC50: item COC1CN(C(=O)Cc2c(F)cc(OCC[C@@H]3C[C@@H]3C3CCN(c4nc(C(C)C)no4)CC3)cc2F)C1 [Example 113] , target or system UniProt Q8TDV5.
### Response 0.33

### Prompt Provide the documented EC50 with UniProt Q8TDV5 as the system for CC1(O)CN(C(=O)Cc2ccc(OCC[C@@H]3C[C@@H]3C3CCN(C(=O)OC4(C)CC4)CC3)cc2F)C1 [Example 64]
### Response 9.5

### Prompt Provide the documented EC50 with UniProt Q8TDV5 as the system for O=C(Cc1ccc(OCC[C@@H]2C[C@@H]2C2CCN(C(=O)OCC3CCC3)CC2)cc1F)N1CCC1 [Example 73]
### Response 2.2

----------
- assayTarget: human GPR119 (Homo sapiens, UniProt Q8TDV5)
- assayProcedure: Measurement of GPR119 signaling (cAMP assay) in cells stably transfected with human GPR119
- Assay type: cell-based
- experimentalContext: table column; cAMP stimulation, human GPR119; read-out: GPR119 Human EC50
Measured pEC50, listed per entry.
FYI, pEC50 means -log10 of a concentration in mol per litre.

Known results for compounds:
• CCS(=O)(=O)c1ccc(OCC[C@@H]2C[C@@H]2C2CCN(C(=O)OC3(C)CC3)CC2)nc1 = 9.05
• COCc1noc(N2CCC([C@H]3C[C@H]3CCOc3ccc(-c4nnn(C)n4)cc3)CC2)n1 = 8.19
• CC1(OC(=O)N2CCC([C@H]3C[C@H]3CCOc3ccc(S(C)(=O)=O)cn3)CC2)CCC1 = 9.22

### Prompt Give the measured pEC50 of CC(C)c1noc(N2CCC([C@H]3C[C@H]3CCOc3ccc(CC(=O)N4CCn5ccnc5C4)c(F)c3)CC2)n1 .
### Response 8.31

### Prompt Entry under review: CC(C)c1noc(N2CCC([C@H]3C[C@H]3CCOc3ccc(CC(=O)NC4CCC4)c(F)c3)CC2)n1 . Reported pEC50?
### Response 8.49

### Prompt Dear colleague, I am looking for the recorded pEC50 of the following compound: CC(C)c1noc(N2CCC([C@H]3C[C@H]3CCOc3ccc(CC(=O)N(C)CC4CCC(=O)N4)c(F)c3)CC2)n1 (stereo partly shown)
### Response 8.10

### Prompt Can you look up the measured pEC50 of CCS(=O)(=O)c1ccc(OCC[C@@H]2C[C@@H]2C2CCN(C(=O)OC3(C)CC3)CC2)cc1F for me?
### Response 8.60

----------
- assayTarget: UniProtKB Q8TDV5
- assayProcedure: Measurement of GPR119 signaling (cAMP assay) in cells stably transfected with human GPR119
- Format: cell-based
- experimentalContext: table column; cAMP stimulation, human GPR119; read-out: GPR119 Human EC50
Listing of entries alongside the reported pEC50.
The scale used: pEC50 is minus the common logarithm of the concentration in molar units.

Previously resolved entries follow.
• O=C(c1c(F)cc(OCC[C@@H]2C[C@@H]2C2CCN(c3nnc4ncccn34)CC2)cc1F)C1CC1 = 8.52
• CS(=O)(=O)c1ccc(OCC[C@@H]2C[C@@H]2C2CCN(c3noc(C4CCC4)n3)CC2)nc1 = 8.40
• CCC1(OC(=O)N2CCC([C@H]3C[C@H]3CCOc3ccc(S(C)(=O)=O)cn3)CC2)CC1 = 8.66
• CC(C)c1noc(N2CCC([C@H]3C[C@H]3CCOc3ccc(CC(=O)N4CCc5nccnc5C4)c(F)c3)CC2)n1 = 8.89
• Cc1nc(C#N)cc(OCC[C@@H]2C[C@@H]2C2CCN(c3nnc4ncccn34)CC2)n1 = 7.60

### Prompt Any idea what its pEC50 is? The compound is CC(C)c1noc(N2CCC([C@H]3C[C@H]3CCOc3ccc(CC(=O)NC4CC4(F)F)c(F)c3)CC2)n1 (stereo partly shown)
### Response 8.20

### Prompt Consider the compound CC(C)c1noc(N2CCC([C@H]3C[C@H]3CCOc3ccc(CC(=O)N4CCn5ncnc5C4)c(F)c3)CC2)n1 and give its measured pEC50.
### Response 8.80

----------
- assayTarget: human GPR119 (Homo sapiens, UniProt Q8TDV5)
- Sequence (Q8TDV5 1-308 limits assumed): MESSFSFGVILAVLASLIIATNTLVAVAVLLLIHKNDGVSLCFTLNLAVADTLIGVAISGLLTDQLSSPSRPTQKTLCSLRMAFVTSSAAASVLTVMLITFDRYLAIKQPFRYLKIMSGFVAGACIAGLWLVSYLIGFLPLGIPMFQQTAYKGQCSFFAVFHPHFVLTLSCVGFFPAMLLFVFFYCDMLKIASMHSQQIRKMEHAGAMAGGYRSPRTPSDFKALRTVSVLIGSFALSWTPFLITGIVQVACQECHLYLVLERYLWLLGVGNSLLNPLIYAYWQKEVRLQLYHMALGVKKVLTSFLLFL
- assayProcedure: Measurement of GPR119 signaling (cAMP assay) in cells stably transfected with human GPR119
- Assay type: cell-based
- experimentalContext: table column; cAMP stimulation, human GPR119; read-out: GPR119 Human EC50
Recorded EC50 by entry
Provide the reading as a plain figure in nM.

• Cc1noc(N2CCC([C@H]3C[C@H]3CCOc3ccc(S(C)(=O)=O)cn3)CC2)n1 = 11
• Cc1nc2c(o1)CN(C(=O)Cc1ccc(OCC[C@@H]3C[C@@H]3C3CCN(c4nc(C(C)C)no4)CC3)cc1F)CC2 = 2.1
• CC(C)c1noc(N2CCC([C@H]3C[C@H]3CCOc3ccc(CC(=O)N4CC(F)(F)C4)c(F)c3)CC2)n1 = 0.55
• O=C(CCC(F)(F)F)N1CCC([C@H]2C[C@H]2CCOc2ccc(-n3cnnn3)cc2)CC1 = 8.5
• O=C(CC1(c2ccccc2)CCC1)N1CCC([C@H]2C[C@H]2CCOc2ccc(-n3cnnn3)cc2)CC1 = 15

### Prompt Test system human GPR119 (Homo sapiens, UniProt Q8TDV5); read-out EC50; what value for Cc1nc2c(o1)CCN(C(=O)Cc1ccc(OCC[C@@H]3C[C@@H]3C3CCN(c4nc(C(C)C)no4)CC3)cc1F)C2 ?
### Response 1.4

### Prompt human GPR119 (Homo sapiens, UniProt Q8TDV5) / EC50 / COCc1noc(N2CCC([C@H]3C[C@H]3CCOc3ccc(CC(=O)N4CCOCC4)c(F)c3)CC2)n1 : value?
### Response 9.8

### Prompt What is its EC50 for human GPR119 (Homo sapiens, UniProt Q8TDV5)? Entry: CC(C)CC(=O)N1CCC([C@H]2C[C@H]2CCOc2ccc(S(C)(=O)=O)c(F)c2)CC1
### Response 19

### Prompt # value lookup — system human GPR119 (Homo sapiens, UniProt Q8TDV5), readout EC50, item CCS(=O)(=O)c1ccc(OCC[C@@H]2C[C@@H]2C2CCN(c3nc(C(C)C)no3)CC2)cc1
### Response 7.7

### Prompt Lab request: please report EC50 under test system human GPR119 (Homo sapiens, UniProt Q8TDV5) for CCCC(=O)c1c(F)cc(OCC[C@@H]2C[C@@H]2C2CCN(c3nc(C(C)C)no3)CC2)cc1F
### Response 0.1

### Prompt Quick check: EC50 on human GPR119 (Homo sapiens, UniProt Q8TDV5), item Cc1nc(CN(C)C(=O)Cc2ccc(OCC[C@@H]3C[C@@H]3C3CCN(c4nc(C(C)C)no4)CC3)cc2F)cs1 ?
### Response 2.3

### Prompt Query for human GPR119 (Homo sapiens, UniProt Q8TDV5): what EC50 does the record show for CS(=O)(=O)c1ccc(OCC[C@@H]2C[C@@H]2C2CCN(C(=O)CC3CCCC3)CC2)nc1 ?
### Response 4.6
